Form field: Emax (one value per entry).
biological target: human androgen receptor (AR) (Homo sapiens, UniProt P10275); construct: expressed in transfected cells; host or cells: mouse myoblast C2C12 cells, transiently co-transfected; assay: C2C12 AR/ARE reporter assay; assay type: cell-based; conditions: C2C12 AR/ARE reporter assay; average of n trials; read-out: C2C12 % Efficacy
Sequence (P10275 whole entry): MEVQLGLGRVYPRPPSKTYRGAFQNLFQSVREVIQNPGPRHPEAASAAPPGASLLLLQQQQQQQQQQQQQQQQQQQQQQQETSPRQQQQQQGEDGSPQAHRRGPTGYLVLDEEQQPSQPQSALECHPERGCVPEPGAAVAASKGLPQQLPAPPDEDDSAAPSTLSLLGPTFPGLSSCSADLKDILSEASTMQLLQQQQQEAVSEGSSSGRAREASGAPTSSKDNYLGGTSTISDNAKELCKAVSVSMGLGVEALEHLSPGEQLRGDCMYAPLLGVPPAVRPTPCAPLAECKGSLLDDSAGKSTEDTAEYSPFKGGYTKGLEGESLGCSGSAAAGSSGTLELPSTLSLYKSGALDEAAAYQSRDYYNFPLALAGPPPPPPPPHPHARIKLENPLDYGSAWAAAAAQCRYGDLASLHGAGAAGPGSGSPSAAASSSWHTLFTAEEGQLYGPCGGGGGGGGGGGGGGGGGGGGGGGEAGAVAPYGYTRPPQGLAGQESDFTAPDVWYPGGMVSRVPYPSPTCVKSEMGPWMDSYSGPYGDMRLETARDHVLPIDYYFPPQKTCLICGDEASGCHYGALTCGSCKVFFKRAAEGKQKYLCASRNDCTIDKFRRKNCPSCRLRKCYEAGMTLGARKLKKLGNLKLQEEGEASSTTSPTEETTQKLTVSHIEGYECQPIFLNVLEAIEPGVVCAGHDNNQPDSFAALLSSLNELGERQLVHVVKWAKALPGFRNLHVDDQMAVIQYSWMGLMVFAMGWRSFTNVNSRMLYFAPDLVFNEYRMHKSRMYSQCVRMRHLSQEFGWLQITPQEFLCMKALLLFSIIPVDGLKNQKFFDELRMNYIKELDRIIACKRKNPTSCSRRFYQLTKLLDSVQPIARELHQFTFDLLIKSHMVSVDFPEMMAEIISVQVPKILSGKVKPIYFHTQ
Measured quantity: Emax (%)

>  <Compound>
CC(C)C(=O)NC1CCc2c(c3cc(-c4ccncc4)ccc3n2Cc2cccc(F)c2)C1 (centres unmarked) [Example 134]

>  <Study system>
human androgen receptor (AR) (Homo sapiens, UniProt P10275)

>  <Scale unit>
%

>  <Quantitative result>
37.6

$$$$
>  <Compound>
CC(C)C(=O)NC1CCc2c(c3cc(C(N)=S)ccc3n2Cc2cccc(F)c2)C1 (centres unmarked) [Example 64]

>  <Study system>
human androgen receptor (AR) (Homo sapiens, UniProt P10275)

>  <Scale unit>
%

>  <Quantitative result>
89.3

$$$$
>  <Compound>
CC(C)C(=O)NC1CCc2c(c3cc(Cl)ccc3n2Cc2ccc(O)cc2)C1 (centres unmarked) [Example 103]

>  <Study system>
human androgen receptor (AR) (Homo sapiens, UniProt P10275)

>  <Scale unit>
%

>  <Quantitative result>
32.8

$$$$
>  <Compound>
CC(C)C(=O)NC1CCc2c(c3cc(C#N)ccc3n2Cc2ccsc2)C1 (centres unmarked) [Example 157]

>  <Study system>
human androgen receptor (AR) (Homo sapiens, UniProt P10275)

>  <Scale unit>
%

>  <Quantitative result>
72.3

$$$$
>  <Compound>
CC(C)C(=O)NC1CCc2c(c3cc(-c4cccnn4)ccc3n2Cc2cccc(F)c2)C1 (centres unmarked) [Example 138]

>  <Study system>
human androgen receptor (AR) (Homo sapiens, UniProt P10275)

>  <Scale unit>
%

>  <Quantitative result>
86.8

$$$$
>  <Compound>
CO/N=C/c1ccc2c(c1)c1c(n2Cc2cccc(F)c2)CCC(NC(=O)C(C)C)C1 (centres unmarked) [Example 199]

>  <Study system>
human androgen receptor (AR) (Homo sapiens, UniProt P10275)

>  <Scale unit>
%

>  <Quantitative result>
83.6

$$$$
>  <Compound>
COC(=O)NC1CCc2c(c3cc(OC(F)(F)F)ccc3n2Cc2cccc(F)c2)C1 (centres unmarked) [Example 168]

>  <Study system>
human androgen receptor (AR) (Homo sapiens, UniProt P10275)

>  <Scale unit>
%

>  <Quantitative result>
56.7

$$$$
>  <Compound>
CC(C)C(=O)NC1CCc2c(c3cc(C#N)ccc3n2Cc2ccc(Cl)s2)C1 (centres unmarked) [Example 148]

>  <Study system>
human androgen receptor (AR) (Homo sapiens, UniProt P10275)

>  <Scale unit>
%

>  <Quantitative result>
86.7

$$$$
>  <Compound>
CC(C)C(=O)NC1CCc2c(c3cc(C(F)F)ccc3n2Cc2cccc(F)c2)C1 (centres unmarked) [Example 198]

>  <Study system>
human androgen receptor (AR) (Homo sapiens, UniProt P10275)

>  <Scale unit>
%

>  <Quantitative result>
102

$$$$
>  <Compound>
CNC(=O)NC1CCc2c(c3cc(C#N)ccc3n2Cc2cccc(F)c2)C1 (centres unmarked) [Example 179]

>  <Study system>
human androgen receptor (AR) (Homo sapiens, UniProt P10275)

>  <Scale unit>
%

>  <Quantitative result>
114

$$$$
>  <Compound>
Cc1ccc(-c2ccc3c(c2)c2c(n3Cc3cccc(F)c3)CCC(NC(=O)C(C)C)C2)nn1 (centres unmarked) [Example 139]

>  <Study system>
human androgen receptor (AR) (Homo sapiens, UniProt P10275)

>  <Scale unit>
%

>  <Quantitative result>
96.9

$$$$
>  <Compound>
CC(C)C(=O)N[C@@H]1CCc2c(c3cc(-c4nncs4)ccc3n2Cc2cccc(F)c2)C1 [Example 127]

>  <Study system>
human androgen receptor (AR) (Homo sapiens, UniProt P10275)

>  <Scale unit>
%

>  <Quantitative result>
72.2

$$$$
>  <Compound>
CC(C)C(=O)NC1CCc2c(c3cc(-c4ccc(F)nc4)ccc3n2Cc2cccc(F)c2)C1 (centres unmarked) [Example 135]

>  <Study system>
human androgen receptor (AR) (Homo sapiens, UniProt P10275)

>  <Scale unit>
%

>  <Quantitative result>
66

$$$$
>  <Compound>
O=C(NC1CCc2c(c3cc(OC(F)(F)F)ccc3n2Cc2cccc(F)n2)C1)C1CC1 (centres unmarked) [Example 163]

>  <Study system>
human androgen receptor (AR) (Homo sapiens, UniProt P10275)

>  <Scale unit>
%

>  <Quantitative result>
75.2

$$$$
>  <Compound>
COC(=O)N[C@@H]1CCc2c(c3cc(C#N)ccc3n2Cc2ccccn2)C1 [Example 185]

>  <Study system>
human androgen receptor (AR) (Homo sapiens, UniProt P10275)

>  <Scale unit>
%

>  <Quantitative result>
77.5

$$$$
>  <Compound>
CC(C)C(=O)NC1CCc2c(c3cc(-c4ccc(N)nc4)ccc3n2Cc2cccc(F)c2)C1 (centres unmarked) [Example 142]

>  <Study system>
human androgen receptor (AR) (Homo sapiens, UniProt P10275)

>  <Scale unit>
%

>  <Quantitative result>
61.8

$$$$
>  <Compound>
COc1ccc2c(c1)c1c(n2Cc2ccccc2)CCC(NC(C)=O)C1 (centres unmarked) [Example 65]

>  <Study system>
human androgen receptor (AR) (Homo sapiens, UniProt P10275)

>  <Scale unit>
%

>  <Quantitative result>
87.3

$$$$
